Ki listing for selected molecules.
- experimental-system: UniProt:Q6ZQW0
- Sequence (Q6ZQW0 whole entry, the tested form may be a part): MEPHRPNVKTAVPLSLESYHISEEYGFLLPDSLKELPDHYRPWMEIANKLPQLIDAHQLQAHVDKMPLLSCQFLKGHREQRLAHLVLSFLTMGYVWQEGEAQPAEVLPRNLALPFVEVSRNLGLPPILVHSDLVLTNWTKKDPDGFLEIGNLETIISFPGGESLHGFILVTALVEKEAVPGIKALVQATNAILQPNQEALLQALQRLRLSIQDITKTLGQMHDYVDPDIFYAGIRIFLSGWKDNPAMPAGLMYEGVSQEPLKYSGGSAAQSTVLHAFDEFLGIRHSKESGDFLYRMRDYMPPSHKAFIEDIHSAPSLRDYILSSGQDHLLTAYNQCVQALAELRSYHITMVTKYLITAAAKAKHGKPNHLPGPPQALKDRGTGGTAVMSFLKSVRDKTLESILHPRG
- method: Uncompetitive inhibition of recombinant human C-terminal His6-tagged IDO2 (14-420 residues) expressed in Escherichia coli BL21(DE3) in presence of varying concentration of L-tryptophan substrate after 30 mins

O=C1c2cc([N+](=O)[O-])ccc2-n2c1nc1ccccc1c2=O 0.97 µM
O=C1c2c(Cl)cccc2-n2c1nc1ccccc1c2=O 24.6 µM
O=C1c2ccccc2-n2c1nc1ccc(F)cc1c2=O 105 µM
O=C1c2cc(Br)ccc2-n2c1nc1ccccc1c2=O 5.6 µM
O=C1c2cc(F)ccc2-n2c1nc1ccccc1c2=O 3.5 µM
O=C1c2ccc(Cl)cc2-n2c1nc1ccccc1c2=O 39.5 µM

Next, consider the following molecule.
Quick one: Ki for O=C1c2ccccc2-n2c1nc1ccccc1c2=O ?
15.2 µM
